- System Name: Receptor tyrosine-protein kinase erbB-2 (Homo sapiens)
- Test Protocol: Her2 expression decrease, cell viability multiplex – SKBR3 breast tumor cells, AlphaScreen, ATP viability, primary screen (AID 461);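 further: lower value means less Her2 protein in the cells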
- Assay Setup: 18-24 h, at 10 µM, hits give low values
# strict inequality: Her2 level < 90% yields true (1), everything else yields false (0)

C[C@H]1CCCC(=O)CCC/C=C/c2cc(O)cc(O)c2C(=O)O1 : true (1)
O=C(c1cccs1)C1CN2CCC1CC2 (stereo not drawn) : false (0)
Clc1ccc(COC(Cn2ccnc2)c2ccc(Cl)cc2Cl)c(Cl)c1 (stereo not drawn) : true (1)
CCOC(=O)C(O)(c1ccc(N(CC)C(=O)OC)cc1)C(F)(F)F (stereo not drawn) : false (0)
O=C1CC(N2CCC(n3c(=O)[nH]c4ccccc43)CC2)C(=O)N1c1ccc(F)cc1 (stereo not drawn) : true (1)
O=C(C1CCCN(S(=O)(=O)c2cccc3nsnc23)C1)N1CCC2(CC1)OCCO2 (stereo not drawn) : false (0)
Cc1nn(-c2ccccc2)c2c1CC1(C(=O)N(C)C(=O)N(C)C1=O)C1CCCCN21 (stereo not drawn) : false (0)
Cc1cccc(N2CCc3c2nc2ccccc2c3N)c1 : true (1)
CC(C)C(=O)N1CCN(CCN=Cc2c(O)n(C)c(=O)n(C)c2=O)CC1 : false (0)
COc1ccccc1N1CCN(Cc2cccc(OC)c2O)CC1 : false (0)

Data request: Input "CN1C(=O)C(Cc2cccc3ccccc23)C(=O)N(C)C1=O" ; condition: Her2 level strictly below 90%. Does it hold?
Data returned: false (0)

Data request: Input "C[C@@]1(CO)[C@H](O)CC[C@@]2(C)[C@H]1CC[C@H]1C[C@@H]3C[C@@]12CC[C@]3(O)CO" ; condition: Her2 level strictly below 90%. Does it hold?
Data returned: true (1)

Data request: Input COCCOC(=O)C1=C(N)Oc2c(c(=O)oc3ccccc23)C1c1ccncc1 (stereo not drawn) ; condition: Her2 level strictly below 90%. Does it hold?
Data returned: true (1)

Data request: Input "CC[C@@H]1C(=O)OC[C@@H]1Cc1cncn1C" ; condition: Her2 level strictly below 90%. Does it hold?
Data returned: false (0)

Data request: Input "O=P(OCC(F)(F)C(F)F)(N1CCCCC1)N1CCCCC1" ; condition: Her2 level strictly below 90%. Does it hold?
Data returned: false (0)

Data request: Input CCC(COC(=O)c1cc(OC)c(OC)c(OC)c1)(c1ccccc1)N(C)C (stereo not drawn) ; condition: Her2 level strictly below 90%. Does it hold?
Data returned: false (0)
